target_entity: GSG2 (Haspin) (Homo sapiens, UniProt Q8TF76)
Construct: purchased Thermo Fisher Scientific
Sequence (Q8TF76 1-798): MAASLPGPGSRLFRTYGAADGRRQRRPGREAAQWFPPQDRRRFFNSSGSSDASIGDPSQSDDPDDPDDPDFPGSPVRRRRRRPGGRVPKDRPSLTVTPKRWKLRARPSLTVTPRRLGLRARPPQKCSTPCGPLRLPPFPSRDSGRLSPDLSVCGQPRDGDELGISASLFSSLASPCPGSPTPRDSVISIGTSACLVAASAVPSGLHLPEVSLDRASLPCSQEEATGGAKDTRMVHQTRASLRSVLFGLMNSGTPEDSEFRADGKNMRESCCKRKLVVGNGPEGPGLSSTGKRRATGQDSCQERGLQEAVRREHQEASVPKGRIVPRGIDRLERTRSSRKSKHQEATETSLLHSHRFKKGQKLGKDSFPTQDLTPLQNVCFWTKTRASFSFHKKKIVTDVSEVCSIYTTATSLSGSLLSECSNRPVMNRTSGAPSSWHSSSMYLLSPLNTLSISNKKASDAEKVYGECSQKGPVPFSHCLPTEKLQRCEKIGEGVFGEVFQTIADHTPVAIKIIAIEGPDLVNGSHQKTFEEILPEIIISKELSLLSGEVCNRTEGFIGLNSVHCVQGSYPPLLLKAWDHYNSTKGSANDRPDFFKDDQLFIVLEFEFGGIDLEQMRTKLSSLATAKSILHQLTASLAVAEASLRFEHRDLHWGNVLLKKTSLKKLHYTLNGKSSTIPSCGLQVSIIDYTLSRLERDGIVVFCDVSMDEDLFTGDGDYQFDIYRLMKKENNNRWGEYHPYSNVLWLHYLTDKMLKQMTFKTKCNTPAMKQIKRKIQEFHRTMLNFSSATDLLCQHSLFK
experiment_notes: Kinase panel study
Format: biochemical
run_conditions: GSG2 (Haspin); compound at 10µM; read-out: % of Inhibition
Kindly supply the reported inhibition at 10 µM values for the records listed here.
// return numeric value only (unit: %, not printed)

Observed inhibition at 10 µM, GSG2 (Haspin) (Homo sapiens, UniProt Q8TF76), COc1ccc2nc3c(cc2c1)c(N)nn3C(=O)c1cccc(N(C)C)c1 [MW05-E2] : 36

Observed inhibition at 10 µM, GSG2 (Haspin) (Homo sapiens, UniProt Q8TF76), `O=c1c2cc(O)ccc2c2nccc3c4cc(O)ccc4n1c32` : 80

Observed inhibition at 10 µM, GSG2 (Haspin) (Homo sapiens, UniProt Q8TF76), `COc1ccc2c(c1)c1ccnc3c4ccnc(OC)c4c(=O)n2c13` : 24

Observed inhibition at 10 µM, GSG2 (Haspin) (Homo sapiens, UniProt Q8TF76), `COc1ccc2c(c1)c1ccnc3c4nc(OC)ccc4c(=O)n2c13` : 29

Observed inhibition at 10 µM, GSG2 (Haspin) (Homo sapiens, UniProt Q8TF76), `O=c1c2cnccc2c2nccc3c4cc(O)ccc4n1c32` : 88

----------
target_entity: FRAP1 (mTOR) (Homo sapiens, UniProt P42345)
Construct: purchased Thermo Fisher Scientific
experiment_notes: Kinase panel study
Assay type: biochemical
run_conditions: FRAP1 (mTOR); compound at 10µM; read-out: % of Inhibition
Hi, to clarify the labels: 1 covers inhibition at 10 µM from 30% upward, 0 covers anything below 30%.

Q: Quick check: does COc1ccc2nc3c(cc2c1)c(N)nn3C(=O)c1cccc(N(C)C)c1 [MW05-E2] have inhibition at 10 µM greater than or equal to 30%?
Ans: 0

Q: Quick check: does COc1ccc2c(c1)c1ccnc3c4nc(OC)ccc4c(=O)n2c13 [MW01-E6] have inhibition at 10 µM greater than or equal to 30%?
Ans: 0

Q: Quick check: does O=c1c2cc(O)ccc2c2nccc3c4cc(O)ccc4n1c32 [MW01-E10] have inhibition at 10 µM greater than or equal to 30%?
Ans: 1

Q: Quick check: does O=c1c2cnccc2c2nccc3c4cc(O)ccc4n1c32 [MW01-E18] have inhibition at 10 µM greater than or equal to 30%?
Ans: 1

Q: Quick check: does COc1ccc2c(c1)c1ccnc3c4ccnc(OC)c4c(=O)n2c13 [MW01-E14] have inhibition at 10 µM greater than or equal to 30%?
Ans: 0
